Reported pIC50 by item:
# Tested System: HCV NS5B polymerase (Hepatitis C virus genotype 1b, UniProt P26663)
# Construct: A soluble C-terminal 21-amino acid truncated NS5B enzyme form; polyhistidine (C)
# Sequence (P26663 2420-2989): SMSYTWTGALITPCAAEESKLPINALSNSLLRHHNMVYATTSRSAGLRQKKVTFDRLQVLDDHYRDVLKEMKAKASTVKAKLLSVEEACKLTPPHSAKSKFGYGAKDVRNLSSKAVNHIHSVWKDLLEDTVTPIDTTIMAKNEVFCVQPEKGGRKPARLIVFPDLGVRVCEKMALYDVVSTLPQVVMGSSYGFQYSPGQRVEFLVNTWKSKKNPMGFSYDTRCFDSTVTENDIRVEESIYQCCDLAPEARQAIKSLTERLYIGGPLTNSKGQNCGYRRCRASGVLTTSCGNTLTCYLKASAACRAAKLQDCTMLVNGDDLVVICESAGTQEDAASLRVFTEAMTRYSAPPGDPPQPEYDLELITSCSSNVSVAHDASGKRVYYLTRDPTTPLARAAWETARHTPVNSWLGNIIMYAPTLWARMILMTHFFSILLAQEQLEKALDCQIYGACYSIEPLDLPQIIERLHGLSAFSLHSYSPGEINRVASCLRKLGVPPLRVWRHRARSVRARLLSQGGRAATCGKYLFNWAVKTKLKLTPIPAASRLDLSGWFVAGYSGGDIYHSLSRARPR
# Assay Notes: HCV NS5B Polymerase Inhibition Assay
pIC50: −log10 of the molar value.

Illustrative cases are given below, each with its answer.
>>> print(df.to_string())
                        structure_as_smiles                             tested_system  measurement_type  result
0  Nc1ccccc1Cn1c(C(=O)O)c(-c2ccccc2F)c2c3ccccc3ccc21  HCV NS5B polymerase (Hepatitis C virus genotype 1b, UniProt P26663)             pIC50  < 7.00
1  O=C(NS(=O)(=O)C1CC1)c1c(-c2ccc[nH]c2=O)c2c3c(ccc2n1Cc1ccccc1F)CCCO3  HCV NS5B polymerase (Hepatitis C virus genotype 1b, UniProt P26663)             pIC50  > 7.60
2  Nc1cc(Cn2c(C(=O)O)c(-c3ccccc3F)c3c4ccccc4ccc32)ncn1  HCV NS5B polymerase (Hepatitis C virus genotype 1b, UniProt P26663)             pIC50  < 7.00

Enquiry: Looking for the measured pIC50 of O=C(O)c1c(-c2ccc[nH]c2=O)c2c3c(ccc2n1Cc1cc(F)ccc1F)CCCO3 , can you help?
Return: > 7.60

Enquiry: Now the same for Nc1cc(Cn2c(C(=O)NS(=O)(=O)c3ccccc3)c(-c3ccc[nH]c3=O)c3c4ccccc4ccc32)ccn1
Return: 7.00 to 7.60

Enquiry: Same read-out for O=C(O)c1c(-c2ccc[nH]c2=O)c2c3ncccc3ccc2n1Cc1ccccc1F ?
Return: < 7.00

Enquiry: Consider next the compound O=C(O)c1c(-c2ccccc2F)c2c3ccccc3ccc2n1Cc1ccccc1 in the same way.
Return: < 7.00

Enquiry: Same question, Nc1cc(Cn2c(C(=O)NS(=O)(=O)c3ccc(O)cc3)c(-c3ccc[nH]c3=O)c3c4ccccc4ccc32)ccn1 this time
Return: 7.00 to 7.60
